# test_name: acute LD50 in mice
# condition: mouse, in vivo, intravenous
observed_property: LD50 (mg/kg)

1. C=C1OC(OC2C(CO)OC(Oc3ccc(C(=O)NCCCNCCCCNCCCCN)cc3)C2O)C(O)C(OC2OC(CO)C(OC3OC(C)C(N)C(O)C3NC(=O)C(C)N)C(O)C2O)C1O (stereo not shown) [Bu-2349A]	35

----------
# test_name: mouse blood level, paper disc-agar plate assay
# Assay type: in vivo
# condition: mouse, blood; mice, im, 50 mg./kg.; 60 minutes
observed_property: concentration at 1 h (ng/mL)

1. C=C1OC(OC2C(CO)OC(Oc3ccc(C(=O)NCCCNCCCCNCCCCN)cc3)C2O)C(O)C(OC2OC(CO)C(OC3OC(C)C(N)C(O)C3NC(=O)C(C)N)C(O)C2O)C1O (stereo not shown) [Bu-2349A]	2800
